Source: PubChem BioAssay (NCI)

# System: MCF7 breast
# assay_info: NCI tumour cell line growth inhibition, 48 h
TGI reference

molecule | TGI
C/C=C1\CC(C(=O)OCC)CCCCCCCCCCC1=O (configuration not stated) | > 100 µM
Cc1nnc(-c2ccc(-c3nc4ccccc4o3)cc2)o1 | > 100 µM
C#CCN(Cc1nc2cc(C(F)(F)F)ccc2nc1-c1ccccc1)c1ccc(F)c(F)c1 | > 100 µM
C=CCC(SC)C1=C(C)C(=O)c2ccccc21 (configuration not stated) | > 10 µM
CC(=O)C1(O)Cc2c(O)c3c(c(O)c2C(OC2CC(N)C(O)C(C)O2)C1)C(=O)c1ccccc1C3=O (configuration not stated) | 1.5 µM
CC1(C)C2CCC(N)(C2)C1O (configuration not stated) | > 100 µM
Cc1nc2c(=O)[nH]c3ccc(Cl)cc3c2o1 | > 100 µM
O=[N+]([O-])c1cc(Cl)ccc1S(=O)(=O)N1CCCc2cc(Cl)ccc21 | > 100 µM
N=C(N)SCCc1ccccn1 | > 100 µM
COc1c(N2CCN(Cn3c(O)c(N=NC(=O)c4ccncc4)c4cc(F)ccc43)C(C)C2)c(F)cc2c(=O)c(C(=O)O)cn(C3CC3)c12 (configuration not stated) | > 50 µM
O=C1c2ccccc2-c2c1c1ccccc1c(=O)n2-c1ccccc1 | > 100 µM
COc1cc(C2c3cc4c(cc3[C@@H](Nc3ccc(N)cc3)C3COC(=O)[C@H]23)OCO4)cc(OC)c1O (some centres not stated) | 12.3 µM
CC1CC[C@@]2(OC1)OC1C[C@H]3[C@@H]4CCC5CC(O)CC[C@]5(C)[C@H]4C/C(=N\N(C)C)[C@]3(C)C1[C@@H]2C (some centres not stated) | > 100 µM
CCCCCCCCCCCCCCCCP(=O)([O-])OCC[N+](C)(C)C | 35.3 µM
CCCn1c(N)c(C(=O)CNc2ccc(I)cc2)c(=O)[nH]c1=O | > 100 µM
Oc1ccc(Cl)cc1-c1cc(-c2ccc(F)cc2)n[nH]1 | 14.1 µM
COc1cccc(C2=C(c3cn(C)c4cccc(OC)c34)C(=O)NC2=O)c1 | > 25 µM
